Catalogue of sequences with associated self-splicing fitness (ln)
Experiment: self-splicing fitness, log relative to wild type (ln ratio); higher = more splicing; Tetrahymena group I intron in knt gene, E. coli kanamycin selection, DiMSum; sequences stand for … in CUCUCU…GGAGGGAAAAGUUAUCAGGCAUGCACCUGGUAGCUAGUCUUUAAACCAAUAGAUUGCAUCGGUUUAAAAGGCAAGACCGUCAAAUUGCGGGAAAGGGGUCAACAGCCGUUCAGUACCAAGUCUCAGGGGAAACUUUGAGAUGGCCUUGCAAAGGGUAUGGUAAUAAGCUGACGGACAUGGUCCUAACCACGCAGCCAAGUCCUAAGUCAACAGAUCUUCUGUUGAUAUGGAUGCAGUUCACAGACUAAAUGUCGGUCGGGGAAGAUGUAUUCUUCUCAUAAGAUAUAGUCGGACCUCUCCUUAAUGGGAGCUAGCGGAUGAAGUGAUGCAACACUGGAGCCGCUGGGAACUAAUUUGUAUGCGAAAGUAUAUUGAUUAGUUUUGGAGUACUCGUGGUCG;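 note: selection with 25 µg/mL kanamycin versus none on LB agar overnight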
Conditions: 37 °C

Reference set, count: 5
1) CCUAAGCAAUAUUACGUAGA: -0.523
2) UGAAAGCAAUAUUACGCACU: 0.371
3) UAAGAGCAAUAUUACGAACA: -1.26
4) CCUUAGCAAUAUUACGUGCU: -2.83
5) CGAAAGCAAUAUUACGACGG: 0.569

Challenge: In one line, give reported self-splicing fitness (ln) of the entry `AGUCAGCAAUAUUACGGUUA` .
Response given: -0.533

Challenge: In one line, give reported self-splicing fitness (ln) of the entry `CGACAGCAAUAUUACGAAUA` .
Response given: -3.12

Challenge: Tell me self-splicing fitness (ln) reported for `ACUUAGCAAUAUUACGCAGA`
Response given: -0.913

Challenge: Give self-splicing fitness (ln) for `CAAAAGCAAUAUUACGGAUU`
Response given: -2.87

Challenge: Consider the sequence `GGUUAGCAAUAUUACGCCCU` and give its recorded self-splicing fitness (ln).
Response given: -0.983
